The reported measurements were obtained from the supplement of paper PMC8728848.

- TESTED_TARGET: Gal3S6S(b1-4)GlcNAc6S
- ASSAY_REMARKS: glycan array binding signal (z-score within array); higher = stronger binding
- ASSAY_CONDITIONS: glycan notation: IUPAC condensed, linker removed
Shown is part of a subset that was picked to be rich in the strongest signals.
PROPERTY: glycan array binding signal (z-score)
The response must contain the number and no unit.

Known results for binders:
BINDER: DCIR (Homo sapiens), Q9UMR7 (protein) MTSEITYAEVRFKNEFKSSGINTASSAASKERTAPHKSNTGFPKLLCASLLIFFLLLAISFFIAFVIFFQKYSQLLEKKTTKELVHTTLECVKKNMPVEETAWSCCPKNWKSFSSNCYFISTESASWQDSEKDCARMEAHLLVINTQEEQDFIFQNLQEESAYFVGLSDPEGQRHWQWVDQTPYNESSTFWHPREPSDPNERCVVLNFRKSPKRWGWNDVNCLGPQRSVCEMMKIHL
glycan array binding signal (z-score): 7.43

BINDER: Annexin-A1 (Mus musculus), P10107 (protein) MAMVSEFLKQARFLENQEQEYVQAVKSYKGGPGSAVSPYPSFNVSSDVAALHKAIMVKGVDEATIIDILTKRTNAQRQQIKAAYLQENGKPLDEVLRKALTGHLEEVVLAMLKTPAQFDADELRGAMKGLGTDEDTLIEILTTRSNEQIREINRVYREELKRDLAKDITSDTSGDFRKALLALAKGDRCQDLSVNQDLADTDARALYEAGERRKGTDVNVFTTILTSRSFPHLRRVFQNYGKYSQHDMNKALDLELKGDIEKCLTTIVKCATSTPAFFAEKLYEAMKGAGTRHKALIRIMVSRSEIDMNEIKVFYQKKYGISLCQAILDETKGDYEKILVALCGGN
glycan array binding signal (z-score): 7.38

BINDER: GS13455A-bfa-343-25-343 (Bacteroides fragilis) (protein) KDEIQIVDQDTSWQMDNKYIEEDIREQLGIDPFTDLVYLGYYGNPYTQLEAINDLVNTTLVGKNELSFKVKVTKPYKEDIKVNLMKEDKLVTDFPEMAEGIPLFPSENCTFEGGVLKAGELETTVKLTLKDVEKLNNLSGYVMAIKLTMEGSHEHLAIARTRSSYFVKLNLSIRLDNIDSSNKKIEGKGFNKEISFKSDIRPDKLGSLNDGNFTANNWYTSNANNYLTIILPEKQSLKGFRLDTNTSPSGSYMLKSCRVMVETPDGNWVNHGVFDRKSMDGIAYISFKKPVECTKVRFENMMAFNGRFSVDVNEVTAFR
glycan array binding signal (z-score): 1.68

BINDER: CrataBL (Crataeva tapia), C0HJA4 (protein) AILTGVPYYILPSTSRAGFSPDNLRKNTSQLSCPLDLITQLRFPRRIGVPVIFTPQNSSLKVVPLSHNLNIHTCSDLWFCPESKIWTVKSSLTHGGSVVTTGGTFRSLGSWFRIERHGDSYKLVHCPRGSTPCRDVGIETVGGGGRRYLAPRDRPLAVRFTRASG
glycan array binding signal (z-score): 11.7

Query binder follows.
Respond only with glycan array binding signal (z-score) recorded for XTP3-B-MRH1 (Homo sapiens), Q96DZ1 (protein) LLEPLFKQSSCSYRIESYWTYEVCHGKHIRQYHEEKETGQKINIHEYYLGNMLAKNLLFEKEREAEEKEKSNEIPTKNIEGQMTPYYPVGMGNGTPCSLKQNRPRSSTVMYICHPESKHEILSVAEVTTCEYEVVILTPLLCSHPKYRFRA
-0.392
